Consider the following compounds; for each one, report its solubility at 2 h.
# assay.summary: Solubility testing of peptides at different pH
# Assay type: physicochemical
# condition.description: 50 mM phosphate buffer pH 9.0; target concentration 1 mg/ml; 2 hours agitation; read-out: Solubility Buffer pH 9.0
Starred links: 1 amine or outer side, 2 acyl side, 3 side chain; linkers in the order of their positions; H or OH if unused. Positions of bridges follow the written chain, without caps; N, C: chain ends. Non-standard residues stand in square brackets, D forms with d. Residues, ends and D or L forms follow the SMILES beside them. X3 = CN(CCCCC(=O)N[C@@H](CS[*:2])C(=O)[*:1])[*:3]; 2Nal = N[C@@H](Cc1ccc2ccccc2c1)C(=O)O; AEF = NCCOc1ccc(C[C@H](N)C(=O)O)cc1; Thp = NC1(C(=O)O)CCOCC1; Aib = CC(C)(N)C(=O)O
Answers are plain numbers, in µg/mL.

compound: CC(=O)N[C@H]1CCCCNC(=O)[C@@H]2CSSC[C@H](NC(=O)[C@H](CCC(N)=O)NC(=O)[C@H](Cc3c[nH]c4ccccc34)NC1=O)C(=O)N[C@@H](Cc1ccc(OCCN)cc1)C(=O)N[C@@H](Cc1ccc3ccccc3c1)C(=O)NC1(CCOCC1)C(=O)N[C@H](C(=O)N[C@@H](CC(N)=O)C(=O)NCC(N)=O)CCC(=O)N(C)CCCCC(=O)N2 [compound 16] (Ac-KWQC[AEF][2Nal][Thp]ENG-NH2; linker 1-4-8 via X3)
unit.tag: µg/mL
solubility at 2 h: 810

(Q) Using the record for CC(=O)N[C@H]1CCCCNC(=O)[C@@H]2CSSC[C@H](NC(=O)[C@H](CCC(N)=O)NC(=O)[C@H](Cc3c[nH]c4ccccc34)NC1=O)C(=O)N[C@@H](Cc1ccc(OCCN)cc1)C(=O)N[C@@H](Cc1ccc3ccccc3c1)C(=O)NC(C)(C)C(=O)N[C@H](C(=O)N[C@@H](CC(N)=O)C(=O)NCC(N)=O)CCC(=O)N(C)CCCCC(=O)N2 [compound 15] (Ac-KWQC[AEF][2Nal][Aib]ENG-NH2; linker 1-4-8 via X3) , state its measured solubility at 2 h.
(A) 670

###

# assay.summary: Solubility testing of peptides at different pH
# Assay type: physicochemical
# condition.description: 50 mM phosphate buffer pH 7.4; target concentration 1 mg/ml; 2 hours agitation; read-out: Solubility Buffer pH 7.4
Starred links: 1 amine or outer side, 2 acyl side, 3 side chain; linkers in the order of their positions; H or OH if unused. Positions of bridges follow the written chain, without caps; N, C: chain ends. Non-standard residues stand in square brackets, D forms with d. Residues, ends and D or L forms follow the SMILES beside them. *: point of attachment. X5 = CN(C(=O)CCC(=O)[*:3])[C@@H](CS[*:2])C(=O)[*:1]; Trp(7-Me) = Cc1cccc2c(C[C@H](N)C(=O)O)c[nH]c12; 2Nal = N[C@@H](Cc1ccc2ccccc2c1)C(=O)O; 3Pal = N[C@@H](Cc1cccnc1)C(=O)O; Lys(Me) = CNCCCC[C@H](N)C(=O)O; Thp = NC1(C(=O)O)CCOCC1; Me2NCH2CH2 = CN(C)CC*; Sar = CNCC(=O)O
result.type: solubility at 2 h (µg/mL)
Give bare numbers, in µg/mL.

(Q) Return solubility at 2 h for the following compound: CC(=O)NCCCC[C@@H]1NC(=O)[C@H](Cc2c[nH]c3c(C)cccc23)NC(=O)[C@@H](NC(C)=O)CCCCNC(=O)[C@@H]2CSSC[C@H](NC1=O)C(=O)N[C@@H](Cc1ccc(OCCN(C)C)cc1)C(=O)N[C@@H](Cc1ccc3ccccc3c1)C(=O)NC1(CCOCC1)C(=O)N[C@H](C(=O)N[C@@H](CC(N)=O)C(=O)N[C@@H](Cc1cccnc1)C(=O)N(C)CC(N)=O)CCCCN(C)C(=O)CCC(=O)N2C [compound 74] (Ac-K[Trp(7-Me)]K(Ac)CY(Me2NCH2CH2)[2Nal][Thp][Lys(Me)]N[3Pal][Sar]-NH2; linker 1-4-8 via X5)
(A) 330

###

# assay.summary: Solubility testing of peptides at different pH
# Assay type: physicochemical
# condition.description: 50 mM phosphate buffer pH 7.4; target concentration 1 mg/ml; 2 hours agitation; read-out: Solubility Buffer pH 7.4
Starred links: 1 amine or outer side, 2 acyl side, 3 side chain; linkers in the order of their positions; H or OH if unused. Positions of bridges follow the written chain, without caps; N, C: chain ends. Non-standard residues stand in square brackets, D forms with d. Residues, ends and D or L forms follow the SMILES beside them. X3 = CN(CCCCC(=O)N[C@@H](CS[*:2])C(=O)[*:1])[*:3]; 2Nal = N[C@@H](Cc1ccc2ccccc2c1)C(=O)O; AEF = NCCOc1ccc(C[C@H](N)C(=O)O)cc1; Thp = NC1(C(=O)O)CCOCC1
result.type: solubility at 2 h (µg/mL)
One number for each entry, in µg/mL.

Give me solubility at 2 h for each of these compounds, listed below.
1. CC(=O)N[C@H]1CCCCNC(=O)[C@@H]2CSSC[C@H](NC(=O)[C@H](CCC(N)=O)NC(=O)[C@H](Cc3c[nH]c4ccccc34)NC1=O)C(=O)N[C@@H](Cc1ccc(OCCN)cc1)C(=O)N[C@@H](Cc1ccc3ccccc3c1)C(=O)NC1(CCOCC1)C(=O)N[C@H](C(=O)N[C@@H](CC(N)=O)C(=O)N[C@@H](CC(N)=O)C(N)=O)CCC(=O)N(C)CCCCC(=O)N2 [compound 13] (Ac-KWQC[AEF][2Nal][Thp]ENN-NH2; linker 1-4-8 via X3)
2. CC(=O)N[C@H]1CCCCNC(=O)[C@@H]2CSSC[C@H](NC(=O)[C@H](CCC(N)=O)NC(=O)[C@H](Cc3c[nH]c4ccccc34)NC1=O)C(=O)N[C@@H](Cc1ccc(OCCN)cc1)C(=O)N[C@@H](Cc1ccc3ccccc3c1)C(=O)NC1(CCOCC1)C(=O)N[C@H](C(=O)N[C@@H](C)C(=O)N[C@H](CC(C)C)C(N)=O)CCC(=O)N(C)CCCCC(=O)N2 [compound 34] (Ac-KWQC[AEF][2Nal][Thp]EA[dL]-NH2; linker 1-4-8 via X3)

(A)
1: 770; 2: 270

###

# System: Pancreatin
# assay.summary: Protease stability in simulated intestinal fluid (Pancreatin-SIF, FaSSIF)
# Type: in vitro ADME
# condition.description: 240 min, 1 μM peptide, 37° C., read-out: FaSSIF 240 (min), remaining percent of peptide
Positions of bridges follow the written chain, without caps; N, C: chain ends. Non-standard residues stand in square brackets, D forms with d. Residues, ends and D or L forms follow the SMILES beside them. *: point of attachment. Trp(7-Me) = Cc1cccc2c(C[C@H](N)C(=O)O)c[nH]c12; 2Nal = N[C@@H](Cc1ccc2ccccc2c1)C(=O)O; Thp = NC1(C(=O)O)CCOCC1; Me2NCH2CH2 = CN(C)CC*; Ava = NCCCCC(=O)O
result.type: remaining at 4 h, 1 µM (%)
Give bare numbers, in %.

(Q) // fetch remaining at 4 h, 1 µM given entry CC(=O)NCCCC[C@@H]1NC(=O)[C@H](Cc2c[nH]c3c(C)cccc23)NC(=O)[C@H]([C@@H](C)O)NC(=O)[C@H](CC(N)=O)NC(=O)[C@@H]2CSSC[C@H](NC1=O)C(=O)N[C@@H](Cc1ccc(OCCN(C)C)cc1)C(=O)N[C@@H](Cc1ccc3ccccc3c1)C(=O)NC1(CCOCC1)C(=O)N[C@H](C(=O)N[C@@H](CC(N)=O)C(=O)N[C@@H](Cc1c[nH]cn1)C(N)=O)CCC(=O)NCCCCC(=O)N2 [compound 21] ([Ava]CNT[Trp(7-Me)]K(Ac)CY(Me2NCH2CH2)[2Nal][Thp]ENH-NH2; disulfide 2-7; lactam N-11)
(A) 75

###

# assay.summary: Solubility testing of peptides at different pH
# Type: physicochemical
# condition.description: 50 mM phosphate buffer pH 9.0; target concentration 1 mg/ml; 2 hours agitation; read-out: Solubility Buffer pH 9.0
Starred links: 1 amine or outer side, 2 acyl side, 3 side chain; linkers in the order of their positions; H or OH if unused. Positions of bridges follow the written chain, without caps; N, C: chain ends. Non-standard residues stand in square brackets, D forms with d. Residues, ends and D or L forms follow the SMILES beside them. *: point of attachment. X3 = CN(CCCCC(=O)N[C@@H](CS[*:2])C(=O)[*:1])[*:3]; Trp(7-Me) = Cc1cccc2c(C[C@H](N)C(=O)O)c[nH]c12; 2Nal = N[C@@H](Cc1ccc2ccccc2c1)C(=O)O; AEF = NCCOc1ccc(C[C@H](N)C(=O)O)cc1; 3Pal = N[C@@H](Cc1cccnc1)C(=O)O; αMeL = CC(C)C[C@](C)(N)C(=O)O; Me2NCH2CH2 = CN(C)CC*; Aib = CC(C)(N)C(=O)O; Ava = NCCCCC(=O)O; βAla = NCCC(=O)O
Task for the reader: assign each of the following molecules its reported solubility at 2 h.

molecule: CC(=O)NCCCC[C@@H]1NC(=O)[C@H](Cc2c[nH]c3c(C)cccc23)NC(=O)[C@H]([C@@H](C)O)NC(=O)[C@H](CC(N)=O)NC(=O)[C@@H]2CSSC[C@H](NC1=O)C(=O)N[C@@H](Cc1ccc(OCCN(C)C)cc1)C(=O)N[C@@H](Cc1ccc3ccccc3c1)C(=O)NC(C)(C)C(=O)N[C@H](C(=O)N[C@@H](CC(N)=O)C(=O)N[C@@H](Cc1c[nH]cn1)C(=O)NCCC(N)=O)CCC(=O)NCCCCC(=O)N2 [compound 48] ([Ava]CNT[Trp(7-Me)]K(Ac)CY(Me2NCH2CH2)[2Nal][Aib]ENH[βAla]-NH2; disulfide 2-7; lactam N-11)
solubility at 2 h: ≥ 1040 µg/mL

Look at each molecule and report its solubility at 2 h.
1. CC[C@H](C)[C@H](NC(=O)[C@H](Cc1cccnc1)NC(=O)[C@H](CC(N)=O)NC(=O)[C@@H]1CCC(=O)NCCCCC(=O)N[C@H]2CSSC[C@H](NC(=O)[C@H](CCCCNC(C)=O)NC(=O)[C@H](Cc3c[nH]c4ccccc34)NC(=O)[C@H]([C@@H](C)O)NC(=O)[C@H](CC(N)=O)NC2=O)C(=O)N[C@@H](Cc2ccc(OCCN(C)C)cc2)C(=O)N[C@@H](Cc2ccc3ccccc3c2)C(=O)NC(C)(C)C(=O)N1)C(N)=O [compound 37] ([Ava]CNTWK(Ac)CY(Me2NCH2CH2)[2Nal][Aib]EN[3Pal]I-NH2; disulfide 2-7; lactam N-11)
2. CC(=O)N[C@H]1CCCCNC(=O)[C@@H]2CSSC[C@H](NC(=O)[C@H](CCC(N)=O)NC(=O)[C@H](Cc3c[nH]c4ccccc34)NC1=O)C(=O)N[C@@H](Cc1ccc(OCCN)cc1)C(=O)N[C@@H](Cc1ccc3ccccc3c1)C(=O)N[C@@](C)(CC(C)C)C(=O)N[C@H](C(=O)N[C@@H](CC(N)=O)C(=O)N[C@@H](CC(N)=O)C(N)=O)CCC(=O)N(C)CCCCC(=O)N2 [compound 14] (Ac-KWQC[AEF][2Nal][αMeL]ENN-NH2; linker 1-4-8 via X3)

(A)
90 µg/mL
< 10 µg/mL
